Several publications report IC50 on human ACC2 (Homo sapiens (Human)); those values are gathered here.
Each record's class is read off its IC50 using these ranges: low range: < 300 nM; mid range: ≥ 300 nM and < 1000 nM; high range: ≥ 1000 nM

INSERT INTO measurements (compound, label_value) VALUES
  ('CC(=O)N[C@@H](C)c1ccc(OC2CCN(c3cccc(C(F)(F)F)c3)C2)cc1 (some centres unmarked)', 'low range'),
  ('CCC(=O)N[C@@H](C)c1ccc(CN2CCc3c(cccc3OC3CCC3)C2)cc1', 'low range'),
  ('CCOc1ccc(C#Cc2ccc(CC(C)NC(=O)C3CNC3)cc2)cc1 (centres unmarked)', 'mid range'),
  ('CC#CCN(CC(C)C)c1nccc(C#Cc2ccc(CC(C)NC(C)=O)cc2)n1 (centres unmarked)', 'high range'),
  ('CC(C)n1ncc2c1C(=O)CC1(CCN(C(=O)c3ccc4[nH]ncc4c3)CC1)C2', 'low range'),
  ('C[C@H](NC(=O)[C@@H](C)O)c1ccc(OC2CCN(c3ccnc(OCC4CC4)c3)C2)cc1 (some centres unmarked)', 'mid range'),
  ('Cc1ccc(-c2ccc(Cl)cc2)cc1C1=C(O)C2(Cc3ccccc3C2)NC1=O', 'high range'),
  ('CC(C(=O)NC1COC1)c1ccc(O[C@@H]2CCN(c3ccc(OCC4CC4(F)F)cn3)C2)cc1 (some centres unmarked)', 'mid range'),
  ('COCCOC1CN(c2ccc(OCC3CC3)cc2)CC1Oc1ccc([C@H](C)NC(C)=O)cc1 (some centres unmarked)', 'mid range'),
  ('COc1c(OCCC(F)(F)F)ccc2c1CCN(Cc1ccc([C@H](C)NC(C)=O)cc1)C2', 'low range'),
  ('CCCNc1ncnc(N2CC[C@@H](Oc3ccc(C(C)C(=O)NCC(F)F)cc3)C2)c1F (some centres unmarked)', 'mid range'),
  ('COC1CCC2(CC1)NC(=O)C(c1cc(-c3ccc(Cl)c(Cl)c3)ccc1C)=C2O (centres unmarked)', 'high range'),
  ('Cc1nocc1C(=O)N[C@@H](C)c1ccc(OC2CCN(c3ccnc(OC(C)C)c3)C2)cc1 (some centres unmarked)', 'low range'),
  ('CCCCOc1ncc(C#Cc2ccc(CC(C)NC(C)=O)cc2)cn1 (centres unmarked)', 'low range');
